Reported PBM binding z-score values follow for various sequences
Test system: PPARg DBDmut IVT, anti-PPARg (DBD mutation: PPARg1 K132A/R137A, NR concentration 270 nM)
Test: PBM binding z-score (relative to random genomic background probes); higher = stronger binding; sequences stand for … in GC…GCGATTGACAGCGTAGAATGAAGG
Write the value as a bare number.

[[record]]
macromolecule_sequence = "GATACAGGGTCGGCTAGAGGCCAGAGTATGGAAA"
tgt = "PPARg DBDmut IVT, anti-PPARg (DBD mutation: PPARg1 K132A/R137A, NR concentration 270 nM)"
parameter_measured = "PBM binding z-score"
obs_value = -0.716


Problem: Give the measured PBM binding z-score of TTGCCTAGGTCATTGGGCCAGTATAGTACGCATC .
Solution: -0.224

Problem: Entry to check: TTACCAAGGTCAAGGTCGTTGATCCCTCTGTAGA
Solution: 0.631

Problem: Next record, please: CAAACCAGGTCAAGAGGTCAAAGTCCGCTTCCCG
Solution: 3.15

Problem: For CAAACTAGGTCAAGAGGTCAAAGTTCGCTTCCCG then?
Solution: 5.91

Problem: Try this sequence too: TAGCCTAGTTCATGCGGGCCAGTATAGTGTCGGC
Solution: -0.528
